# Test system: UACC-62
# PROTOCOL_DETAILS: NCI tumour cell line growth inhibition, 48 h
Active and inactive are the calls of the source. Cut-off read from the data, not from the text of the source: active = GI50 up to about 1.1 µM and inactive = higher.
MEASURED_ENDPOINT: GI50

COMPOUND	EXPERIMENTAL_SYSTEM	VALUE
C/C(=N\NC(=O)c1ccncc1)c1cccc(C(F)(F)F)c1	UACC-62	> 10 µM (inactive)
CC(C)OP(=O)(OC(C)C)C(C(C)C)N(C)/C(N)=N\C1=NC(C(F)(F)F)(C(F)(F)F)N=C(C(C(F)(F)F)C(F)(F)F)O1 (stereo not given)	UACC-62	2.01 µM (inactive)
CN(C)S(=O)(=O)/N=C/c1cccc(/C=N/S(=O)(=O)N(C)C)c1	UACC-62	> 100 µM (inactive)
NC(=O)NC1C(c2ccccc2)=C1c1ccccc1	UACC-62	9.23 µM (inactive)
OCC1OC(n2cnc3c2NC=NC[C@H]3O)CC1O (stereo not given in full)	UACC-62	415 µM (inactive)
CN(CCNC(=O)c1n[nH]c2c1ccc1ccccc12)CCNC(=O)c1n[nH]c2c1ccc1ccccc12	UACC-62	1.92 µM (inactive)
COC[C@@H](/N=C/c1ccc(OC)cc1)C(C)C	UACC-62	> 100 µM (inactive)
C=C(Br)CNC(=O)Nc1ccc(Cl)c(Cl)c1	UACC-62	18.8 µM (inactive)
O=C1C=CC(=O)c2c1ccc1c3ccccc3n(CCCCCCCCn3c4ccccc4c4ccc5c(c43)C(=O)C=CC5=O)c21	UACC-62	> 100 µM (inactive)
CCCCCCCCCCCCCCC(C(=O)[O-])[n+]1ccccc1 (stereo not given)	UACC-62	77.3 µM (inactive)

###

# Tested on: M14
# PROTOCOL_DETAILS: NCI tumour cell line growth inhibition, 48 h
Calls of active or inactive are those of the source. No stated cut-off is given here; in the data, active = GI50 up to about 1.1 µM and inactive = higher.
Outcome codes: 1.0 = active, 0.0 = inactive

MOLECULE	EXPERIMENTAL_SYSTEM	DISCRETE_LABEL
O=c1c2cccc3cccc(c4n1CCN=4)c32	M14	0.0
Nc1ccc(C(=O)NN2C(=O)C(Cl)C2c2cccc([N+](=O)[O-])c2)cc1 (centres undefined)	M14	0.0
C[C@]12CCC3[C@@H](CCC45OC4C(=O)CC[C@]35C)C1Cc1cnn(-c3ccc(F)cc3)c1N2 (some centres undefined)	M14	0.0
Cc1nnc2n1N=C(c1cc(F)c(Cl)cc1Cl)/C(=C/c1ccc3c(c1)OCO3)S2	M14	0.0
CCC(O)c1ccc(/N=C/c2ccccc2O)cc1 (centres undefined)	M14	0.0
[O-]c1c2cc(-[n+]3c(-c4ccccc4)cc(-c4ccccc4)cc3-c3ccccc3)cc1CO[C@@H](c1ccccc1)[C@H](c1ccccc1)OCCOCCO[C@@H](c1ccccc1)[C@H](c1ccccc1)OC2	M14	1.0
CC(=O)OCC1OC(NC(=S)Nn2c(-c3ccccc3)nc3ccccc3c2=O)C(OC(C)=O)C(OC(C)=O)C1OC(C)=O (centres undefined)	M14	0.0
CN1CCCCC(C(O)(c2ccccc2)c2ccccc2)C1=O (centres undefined)	M14	0.0
CCc1cc(-c2nsc(=O)o2)c(S(=O)(=O)CC)s1	M14	0.0

###

# Test system: MOLT-4
# PROTOCOL_DETAILS: NCI tumour cell line growth inhibition, 48 h
Active and inactive are the calls of the source. No stated cut-off is given here; in the data, active = GI50 up to about 1.1 µM and inactive = higher.
Below, each entry is listed alongside its reported GI50.
MEASURED_ENDPOINT: GI50

MOLECULE	VALUE
CN(Cc1cc(C(C)(C)C)cc(Br)c1O)Cc1cc(C(C)(C)C)cc(Br)c1O	3.21 µM (inactive)
Cc1ccc(S(=O)(=O)N/N=C2\C=CC3(CC2)C(=O)N(I)c2ccccc23)cc1 (centres undefined)	42.6 µM (inactive)
CC(C)OP(=O)(OC(C)C)C(C(C)C)N(C)/C(N)=N\C1=NC(C(F)(F)F)(C(F)(F)F)N=C(C(C(F)(F)F)C(F)(F)F)O1 (centres undefined)	1.49 µM (inactive)
COC[C@@H](/N=C/c1ccc(OC)cc1)C(C)C	> 100 µM (inactive)
CCCCc1c(N(C)C)c(OC(C)=O)c(-c2cn(C)c3ccccc23)oc1=O	47.9 µM (inactive)
O=C(CC(=O)N1N=C(n2ccc3ccccc32)CC1c1ccccc1)Nc1ccccc1Cl (centres undefined)	> 100 µM (inactive)
Cc1ccccc1-n1c(N)c(-c2nc3ccccc3[nH]2)sc1=S	27.7 µM (inactive)
O=c1cc(CSc2c(-c3ccccc3)c(=O)n(-c3ccccc3)c(=S)n2-c2ccccc2)[nH]c(=O)[nH]1	> 100 µM (inactive)
CC1=NC2(C(=O)O)C3(C(=O)O)N=C(C)OC3(C(F)(F)F)C2(C(F)(F)F)O1 (centres undefined)	> 100 µM (inactive)

###

# System: SK-MEL-5
# PROTOCOL_DETAILS: NCI tumour cell line growth inhibition, 48 h
The source made the active and inactive calls. No stated cut-off is given here; in the data, active = GI50 up to about 1.1 µM and inactive = higher.

MOLECULE	GI50
Cc1ccc(-c2cc(N)n(-c3nc4c([nH]3)c(=O)n(C)c(=O)n4C)n2)cc1	3.36 µM (inactive)
COc1cc(C(=O)C(CO)Oc2ccccc2OC)ccc1O (centres undefined)	> 100 µM (inactive)
CCOP(=O)(O)C(Nc1ccc(/N=N/c2ccccc2)cc1)c1cccc(C(Nc2ccc(/N=N/c3ccccc3)cc2)P(=O)(O)OCC)c1 (centres undefined)	45.1 µM (inactive)
COc1cc(/C=C/c2sc3ccccc3[n+]2C)ccc1N(C)C	4.14 µM (inactive)
CN(CCNC(=O)c1nn(C)c2c1Cc1ccccc1-2)CCNC(=O)c1nn(C)c2c1Cc1ccccc1-2	12.1 µM (inactive)
N#Cc1c(-c2ccc(Cl)cc2)c2c(n(C3OC(CO)C(O)C(O)C3O)c1=S)CCC2 (centres undefined)	13.3 µM (inactive)
O=C(O)C1C2CCC(C2)C1c1ccccc1 (centres undefined)	> 100 µM (inactive)
O=C(C=P(c1ccccc1)(c1ccccc1)c1ccccc1)c1ccc(-c2ccc(F)cc2F)cc1	1.84 µM (inactive)
CC1=C(C(=O)Nc2cccc(C(F)(F)F)c2)C(c2ccccc2F)C(C(=O)Nc2cccc(C(F)(F)F)c2)=C(C)N1	5.43 µM (inactive)

###

# Test system: BT-549
# PROTOCOL_DETAILS: NCI tumour cell line growth inhibition, 48 h
The source made the active and inactive calls. No stated cut-off is given here; in the data, active = GI50 up to about 1.1 µM and inactive = higher.
Outcome codes: 1 = active, 0 = inactive

COc1cc(/C=C/c2sc3ccccc3[n+]2C)ccc1N(C)C 1
CCN1C(=O)C(=C/C=C/C=C2/N(C)c3ccccc3C2(C)C)C(=O)N(CC)C1=S 0
CCCn1c(=O)c2nn3c(=O)n(CCC)c(=O)c3nn2c1=O 0
Cc1oc2nc(N(C)C)n3cnnc3c2c1C 0
Cc1nnc2n1N=C(c1cc(F)c(Cl)cc1Cl)/C(=C/c1ccc3c(c1)OCO3)S2 0
CCN(CC)CCCNc1nnc(C)c2[nH]c3ccccc3c12 0
COc1ccc2nc3cc(Cl)ccc3c(NCCCN(Cc3cc(OC)c(OC)c(OC)c3)Cc3cc(OC)c(OC)c(OC)c3)c2c1 0
O=C1c2cccnc2-c2nccc3c2c1nc1ccc(Br)cc13 1
CC1CCOc2ccc(cc2)/C=N\c2ccc(cc2)CCc2ccc(cc2)/N=C\c2ccc(cc2)OCC1 0

###

# Test system: IGROV-1
# PROTOCOL_DETAILS: NCI tumour cell line growth inhibition, 48 h
Activity calls are given as the source filed them. No stated cut-off is given here; in the data, active = GI50 up to about 1.1 µM and inactive = higher.
Outcome codes: active, inactive

COMPOUND	DISCRETE_LABEL
COc1cccc2c1C(=O)c1c(O)c3c(c(O)c1C2=O)C[C@@](O)(C(=O)CO)C[C@@H]3OC1CC(N2CCOCC2C#N)C(O)C(C)O1 (stereo not given in full)	active
CC(C)(Oc1ccc2c(=O)cc(-c3ccccc3)oc2c1)C(=O)Nc1c(Cl)cccc1Cl	inactive
Nc1ncnc2oc(-c3cccs3)nc12	inactive
CC1CCOc2ccc(cc2)/C=N\c2ccc(cc2)CCc2ccc(cc2)/N=C\c2ccc(cc2)OCC1	inactive
N#Cc1ccc(/N=N/N2CCCC2)cc1	inactive
O=[N+]([O-])c1cc2no[n+]([O-])c2cc1N1CCCCC1	inactive
CC1=C(C(=O)Nc2ccc([N+](=O)[O-])cc2)C(c2ccc(N(C)C)cc2)C(C(=O)Nc2ccc([N+](=O)[O-])cc2)=C(C)N1	inactive
O=C(/C=C/c1ccsc1)c1ccco1	inactive
N#CC(NNC(=O)Cc1ccccc1)c1cccc(O)c1 (stereo not given)	inactive
CC(O)CC(O)(C(F)(F)F)C(F)(F)F (stereo not given)	inactive
Cc1ccc(NC(=O)c2c(C)nc(=O)n3c2N(/N=C/c2ccc(Cl)cc2)CC3)cc1	inactive
COc1ccc(/N=C\c2ccc(N(CCC#N)CCC#N)cc2)cc1	inactive
O=c1[nH]c(=O)n(CCOc2ccccc2)cc1Nc1ccccc1	inactive
Cc1ccc(S(=O)(=O)Nn2c(O)c(C#N)c(-c3ccc([N+](=O)[O-])cc3)c(C#N)c2=O)cc1	inactive
CC(=O)O[C@H]1CC[C@@]2(C)C(=CC[C@H]3[C@@H]4CC[C@H](c5cc(C(F)(F)F)n(C(C)=O)n5)[C@@]4(C)CC[C@@H]32)C1	inactive
O=C(CC(=O)N1N=C(n2ccc3ccccc32)CC1c1ccccc1)Nc1ccccc1Cl (stereo not given)	inactive
COc1ccc(-c2csc(Cc3nc4ccccc4c(=O)n3-c3ccc(Cl)cc3)n2)cc1	inactive
CCOP(=O)(OCC)C1CC(C)OC1=O (stereo not given)	inactive
COC1=CC(=O)c2c(O)c3c(c(O)c2C1=O)C[C@](C)(O)C[C@@H]3O	inactive
CC1=C(/C=C/Cl)CC(Cl)C(C)(Cl)C1 (stereo not given)	inactive
